The reported measurements were obtained from patent US20180148418A1.

Quick record of pIC50 values for TNKS1 (Homo sapiens, UniProt O95271).
In plain terms, pIC50 is the concentration in mol/L turned into minus its base-10 logarithm.

Quick one: pIC50 for "O=C(N[C@H]1CC[C@H](C(=O)Nc2ccc(F)cc2Cl)CC1)c1cnc2ccc(N3CCOCC3)nn12" ?
6.39

Can you check "CNC(=O)c1nc[nH]c1C(=O)N[C@H]1CC[C@@]2(CCN(c3cccc(Cl)c3)C2=O)CC1" next?
6.74

Record: "Cc1nc2c(C(=O)N[C@H]3CC[C@H](C(=O)Nc4ccc(F)cc4Cl)CC3)cnn2c2c1CCC2"
6.96

Repeat for the following molecule: "O=C(NC1CC1)c1nc[nH]c1C(=O)N[C@H]1CC[C@@]2(CCN(c3cc(F)c(F)cc3Cl)C2=O)CC1"
8.12

// repeat for "O=C(N[C@H]1CC[C@@]2(CCN(c3cccc(Cl)c3)C2=O)CC1)c1[nH]cnc1C(=O)N1CC(F)C1" and report
6.66

How about "CC1CCN(CCNC(=O)c2nc[nH]c2C(=O)N[C@H]2CC[C@H](C(=O)Nc3ccc(F)cc3Cl)CC2)CC1" ?
8.43

// repeat for COCC(C)NC(=O)c1nc[nH]c1C(=O)N[C@H]1CC[C@H](C(=O)Nc2cc(C(F)(F)F)ccc2Cl)CC1 (stereo partly shown) and report
6.68

// same read-out, input: Cc1c(C(C)N(C)C)cnc2c(C(=O)N[C@H]3CC[C@H](C(=O)Nc4ccc(F)cc4Cl)CC3)cnn12 (single isomer, unassigned) [Example 57]
6.36

Quick one: "O=C(NC12CCC(C(=O)Nc3c(F)cc(F)cc3Cl)(CC1)CC2)c1cnc2cccnn12"
6.00

How about "COCCNC(=O)c1nc[nH]c1C(=O)N[C@H]1CC[C@H](C(=O)Nc2ccc(F)cc2Cl)CC1" ?
6.92

Try the molecule "CC(C)NC(=O)c1nc[nH]c1C(=O)N[C@H]1CC[C@@]2(CCN(c3cc(F)c(F)cc3Cl)C2=O)CC1"
8.10

Same thing, different molecule: O=C(NCC1CCCO1)c1nc[nH]c1C(=O)N[C@H]1CC[C@H](C(=O)Nc2c(F)cc(F)cc2Cl)CC1 (stereo in doubt)
6.74

Let us now turn to O=C(NC1CCC2(CC1)CCN(c1cc(F)c(F)cc1Cl)C2=O)c1cnn2cccnc12 (single isomer, unassigned; isomer 1)
8.14

Do the same for "CNC(=O)c1nc[nH]c1C(=O)N[C@H]1CC[C@H](C(=O)N(CCO)c2ccc(F)cc2Cl)CC1" please
6.35

Now give it for "CNC(=O)c1nc[nH]c1C(=O)N[C@H]1CC[C@H](C(=O)Nc2ccncc2Cl)CC1" too.
6.59

Same read-out for "CN(C)c1ccc2ncc(C(=O)N[C@H]3CC[C@H](C(=O)Nc4ccc(F)cc4Cl)CC3)n2n1" ?
7.66

Then what about the molecule "O=C(NC1CC1)c1nc[nH]c1C(=O)N[C@H]1CC[C@H](C(=O)Nc2ccc(F)cc2Cl)CC1" ?
7.08

And what about the molecule "CN1CC2(C1)CN(C(=O)c1nc[nH]c1C(=O)N[C@H]1CC[C@@]3(CCN(c4ccc(F)cc4Cl)C3=O)CC1)C2" ?
8.06

Also, "CNC(=O)c1[nH]cnc1C(=O)N[C@H]1CC[C@@]2(CCN(c3ccc(F)cc3)C2=O)CC1" please.
6.25

Now consider "O=C(N[C@H]1CC[C@H](C(=O)N(CC2CC2)c2ccc(F)cc2Cl)CC1)c1cnn2cccnc12" and answer again.
7.89

Quick one: "COC(C)(C)CNC(=O)c1nc[nH]c1C(=O)N[C@H]1CC[C@H](C(=O)Nc2ccc(F)cc2Cl)CC1"
6.57

Also, "COCc1cc(C)n2ncc(C(=O)N[C@H]3CC[C@H](C(=O)Nc4ccc(F)cc4Cl)CC3)c2n1" please.
6.51

Entry "CCNC(=O)c1nc[nH]c1C(=O)N[C@H]1CC[C@@]2(CCN(c3ccccc3Cl)C2=O)CC1" please
7.89

Would you mind doing "CNC(=O)c1nc[nH]c1C(=O)N[C@H]1CC[C@@]2(CCN(c3cc(F)c(F)cc3Cl)C2=O)CC1" as well?
8.17

Same question, "O=C(N[C@H]1CC[C@@]2(CCN(c3ccccc3Cl)C2=O)CC1)c1cnn2cccnc12" this time
7.92

Also COCC(C)NC(=O)c1nc[nH]c1C(=O)N[C@H]1CC[C@H](C(=O)Nc2cc(N3CCOCC3)ccc2Cl)CC1 (stereo partly shown) ?
5.55
